Some compounds, each annotated with its measured melting point.

The compound listed as "Nc1cc(C2CC2)nc2ccc(Cl)cc12" shows melting point equal to 96 to 98 °C

The compound listed as "N#Cc1ccc(-c2ccccc2)[nH]c1=O" shows melting point equal to 297 to 299 °C

The compound listed as "Cc1c(C(=O)O)oc2c1C(=O)CCC2" shows melting point equal to 227 to 229 °C

* * *

Some compounds, each annotated with its measured melting point.

Look over these answered cases.
The compound listed as "CC(C)(C)Sc1ccc(C#N)cn1" shows melting point equal to 69 to 71 °C

The compound listed as "Nn1c(S)nnc1-c1ccccc1Cl" shows melting point equal to 110 to 113 °C

The compound listed as "O=C(NO)c1c(F)cccc1Cl" shows melting point equal to 149 to 151 °C

Further cases:
The compound listed as "Cc1cc(C(=O)NN)c(C)o1" shows melting point equal to 132 to 134 °C

The compound listed as "CC(C)(C)C(=O)Nc1ccc(F)c(C(=O)O)c1" shows melting point equal to 179 to 181 °C

The compound listed as "Cn1cc(C#N)c(N)n1" shows melting point equal to 119 to 121 °C

The compound listed as "Cc1cc(C(F)(F)F)nc(O)n1" shows melting point equal to 185 to 187 °C

The compound listed as CC1(c2ccc3ccccc3c2)NC(=O)NC1=O (stereo not given) shows melting point equal to 190 to 192 °C

The compound listed as "N#CCc1nc(-c2ccccc2)n[nH]1" shows melting point equal to 165 to 167 °C

The compound listed as "CN(C)C(N)=NC(=N)N" shows melting point equal to 223 to 226 °C
